- target or system: human recombinant serotonin (5-Hydroxytryptamine) 5-HT2A receptor (Homo sapiens, UniProt P28223)
- Construct: expressed in transfected cells; host or cells: CHO-K1 cells
- Sequence (P28223 whole entry): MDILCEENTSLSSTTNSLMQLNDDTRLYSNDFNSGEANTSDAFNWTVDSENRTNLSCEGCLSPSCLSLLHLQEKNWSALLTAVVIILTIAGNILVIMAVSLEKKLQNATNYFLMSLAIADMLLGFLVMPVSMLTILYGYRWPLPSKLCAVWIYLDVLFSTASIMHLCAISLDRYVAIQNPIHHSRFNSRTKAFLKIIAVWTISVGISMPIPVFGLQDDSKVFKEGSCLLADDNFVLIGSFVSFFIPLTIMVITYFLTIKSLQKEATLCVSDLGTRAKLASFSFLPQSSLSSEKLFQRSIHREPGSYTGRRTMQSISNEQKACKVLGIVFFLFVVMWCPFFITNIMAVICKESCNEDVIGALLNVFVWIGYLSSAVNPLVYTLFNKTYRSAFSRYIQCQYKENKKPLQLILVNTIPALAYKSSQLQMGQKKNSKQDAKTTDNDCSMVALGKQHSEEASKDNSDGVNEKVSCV
- measurement notes: Serotonin 5-HT2A radioligand binding ([3H]Ketanserin)
- condition parameters: compound at 1 μM; CHO-K1 cells; read-out: Serotonin (1 μM) 5-HT2A, percent inhibition of specific binding
quantity kind: inhibition at 1 µM (%)

| compound | quantity kind | reported |
| --- | --- | --- |
| Cc1ccc2c(c1)c1c(n2C2CCCCC2O)CCN(C)C1 (centres unmarked) [Compound 73] | inhibition at 1 µM | 50 |
| Cc1ccc2c(c1)c1c(n2CCNC(=O)c2ccc(F)cc2)CCN(C)C1 [Compound 66] | inhibition at 1 µM | 98 |
| CNC(=O)CCn1c2c(c3cc(C)ccc31)CN(C)CC2 [Compound 1] | inhibition at 1 µM | 30 |
| Cc1ccc2c(c1)c1c(n2CC(=O)NC(C)(C)C)CCN(C)C1 [Compound 24] | inhibition at 1 µM | 9 |
| CN1CCc2c(c3cc(Cl)ccc3n2CCC(=O)OC2CCCC2)C1 [Compound 21] | inhibition at 1 µM | 98 |
| CN1CCc2c(c3cc(Cl)ccc3n2CC(=O)OCC2CCCCC2)C1 [Compound 14] | inhibition at 1 µM | 103 |
| Cc1ccc2c(c1)c1c(n2CCBr)CCN(C)C1 [CD91] | inhibition at 1 µM | 96 |
| Cc1ccc2c(c1)c1c(n2CCNC(=O)C2CCCNC2)CCN(C)C1 (centres unmarked) [Compound 9] | inhibition at 1 µM | 15 |
| CN1CCc2c(c3cc(Cl)ccc3n2CCC#N)C1 [CD94] | inhibition at 1 µM | 60 |
| CCOC(=O)CCn1c2c(c3cc(C)ccc31)CN(C)CC2 [CD1] | inhibition at 1 µM | 89 |
| CCOC(=O)Cn1c2c(c3cc(C)ccc31)CN(C)CC2 [CD57] | inhibition at 1 µM | 92 |

----------
inhibition at 1 µM overview
- target or system: human recombinant histamine H1 receptor (Homo sapiens, UniProt P35367)
- Construct: expressed in transfected cells; host or cells: CHO cells
- Sequence (P35367 whole entry): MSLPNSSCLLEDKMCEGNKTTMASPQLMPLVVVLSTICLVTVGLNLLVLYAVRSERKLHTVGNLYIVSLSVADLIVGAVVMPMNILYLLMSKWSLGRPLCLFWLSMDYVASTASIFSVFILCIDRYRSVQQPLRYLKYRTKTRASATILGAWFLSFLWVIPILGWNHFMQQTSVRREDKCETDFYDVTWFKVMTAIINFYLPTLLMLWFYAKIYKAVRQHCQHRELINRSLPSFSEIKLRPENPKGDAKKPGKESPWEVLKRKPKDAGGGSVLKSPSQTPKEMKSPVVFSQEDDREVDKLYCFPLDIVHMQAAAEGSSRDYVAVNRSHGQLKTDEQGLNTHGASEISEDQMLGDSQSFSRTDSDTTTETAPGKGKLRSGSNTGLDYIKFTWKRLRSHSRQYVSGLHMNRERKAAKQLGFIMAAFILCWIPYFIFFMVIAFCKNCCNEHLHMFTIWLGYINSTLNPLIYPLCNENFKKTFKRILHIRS
- measurement notes: Histamine H1 radioligand binding ([3H]Pyrilamine)
- condition parameters: compound at 1 μM; CHO cells; read-out: Histamine Binding (1 μM) H1, percent inhibition of specific binding
quantity kind: inhibition at 1 µM

| compound | reported |
| --- | --- |
| Cc1ccc2c(c1)c1c(n2CCN)CCN(C)C1 [CD62] | 44% |
| Cc1ccc2c(c1)c1c(n2CCC(=O)NC2CCCCC2)CCN(C)C1 [Compound 3] | 2% |
| CN1CCc2c(c3cc(Cl)ccc3n2CCC(N)=O)C1 [Compound 67] | 70% |
| Cc1ccc2c(c1)c1c(n2CCNC(=O)c2ccc(F)cc2Cl)CCN(C)C1 [Compound 63] | 86% |
| Cc1ccc2c(c1)c1c(n2CCC(N)=O)CCN(C)C1 [Compound 46] | 52% |
| Cc1ccc2c(c1)c1c(n2CCNC(=O)C2CCCCC2)CCN(C)C1 [Compound 62] | 63% |
| C#CCn1c2c(c3cc(C)ccc31)CN(C)CC2 [CD73] | 96% |
| CCOC(=O)Cn1c2c(c3cc(Cl)ccc31)CN(C)CC2 [Compound 10] | 99% |
| CN1CCc2c(c3cc(Cl)ccc3n2CCC(=O)NC2CCCC2)C1 [Compound 31] | 45% |
| CC(C)OC(=O)CCn1c2c(c3cc(Cl)ccc31)CN(C)CC2 [Compound 17] | 96% |
| Cc1ccc2c(c1)c1c(n2CC(=O)NCC2CCCCC2)CCN(C)C1 [Compound 26] | 66% |
| CN1CCc2c(c3cc(Cl)ccc3n2CC(=O)NC2CCCCC2)C1 [Compound 60] | 50% |
| Cc1ccc2c(c1)c1c(n2CCC(=O)NC(C)(C)C)CCN(C)C1 [Compound 28] | 21% |
| CCNC(=O)CCCn1c2c(c3cc(C)ccc31)CN(C)CC2 [Compound 6] | 46% |
| CN1CCc2c(c3cc(Cl)ccc3n2CC(=O)OCc2ccccc2)C1 [Compound 13] | 96% |
| CN1CCc2c(c3cc(Cl)ccc3n2CC(=O)N(C)C)C1 [Compound 48] | 73% |
| Cc1ccc2c(c1)c1c(n2CC(=O)NC(C)C)CCN(C)C1 [Compound 23] | 65% |
| CN1CCc2c(c3cc(Cl)ccc3n2CCC(=O)OCC2CCCCC2)C1 [Compound 20] | 95% |
| Cc1ccc2c(c1)c1c(n2CCNC(=O)C(C)C)CCN(C)C1 [Compound 61] | 32% |
| Cc1ccc2c(c1)c1c(n2C2CCCCC2O)CCN(C)C1 (stereo not shown) [Compound 73] | 2% |
| CN1CCc2c(c3cc(Cl)ccc3n2CC(=O)O)C1 [CD46] | 69% |
| Cc1ccc2c(c1)c1c(n2CC(=O)NC(C)(C)C)CCN(C)C1 [Compound 24] | 44% |
| CN1CCc2c(c3cc(Cl)ccc3n2CCC(=O)O)C1 [CD55] | 22% |
| Cc1ccc2c(c1)c1c(n2CCC(=O)NCC2CCCCC2)CCN(C)C1 [Compound 30] | 18% |
| Cc1ccc2c(c1)c1c(n2CCNC(=O)c2ccc(F)cc2)CCN(C)C1 [Compound 66] | 66% |
